# assay procedure: Plasma, vaginal secretion and vaginal tissue exposure after oral administration in mice
# Format: in vivo
# test context: female, CD-1, mouse, plasma, po, oral gavage, BID 10/5 mg/kg (Day 1), read-out: AUC0-24 Plasma
quantity measured: AUC(0-t) (ng·h/mL)
One number for each entry, in ng·h/mL.

**Query** Any idea what its AUC(0-t) is? The compound is CC(C)[C@@H](C)[C@@]1(C)CC[C@]2(C)[C@H]3CC[C@@H]4[C@@]5(COC[C@]4(C)[C@@H](OC[C@](C)(N)C(C)(C)C)[C@H](n4ncnc4-c4ccncc4)C5)C3=CC[C@@]2(C)[C@@H]1C(=O)O
**Result** 7470

* * *

# assay procedure: Plasma, vaginal secretion and vaginal tissue exposure after oral administration in mice
# Assay type: in vivo
# test context: female, CD-1, mouse, vaginal secretion, po, oral gavage, BID repeat-dose 80/40 mg/kg (Days 1-4), read-out: AUC0-24 Vaginal Secretion
quantity measured: AUC(0-t) (µg·h/mL)
One number for each entry, in µg·h/mL.

**Query** Please give the measured AUC(0-t) for this compound: CC(C)[C@@H](C)[C@@]1(C)CC[C@]2(C)[C@H]3CC[C@@H]4[C@@]5(COC[C@]4(C)[C@@H](OC[C@](C)(N)C(C)(C)C)[C@H](n4ncnc4-c4ccncc4)C5)C3=CC[C@@]2(C)[C@@H]1C(=O)O
**Result** 120

* * *

# assay procedure: Plasma, vaginal secretion and vaginal tissue exposure after oral administration in mice
# Type: in vivo
# test context: female, CD-1, mouse, vaginal secretions, po, BID regimen, 10/5-80/40 mg/kg, read-out: AUC0-24 in vaginal secretions, range over doses
quantity measured: AUC(0-t)

**Query** So what does the record say about AUC(0-t) for CC(C)[C@@H](C)[C@@]1(C)CC[C@]2(C)[C@H]3CC[C@@H]4[C@@]5(COC[C@]4(C)[C@@H](OC[C@](C)(N)C(C)(C)C)[C@H](n4ncnc4-c4ccncc4)C5)C3=CC[C@@]2(C)[C@@H]1C(=O)O ?
**Result** 1550 to 17800 ng·h/mL

* * *

# assay procedure: Plasma, vaginal secretion and vaginal tissue exposure after oral administration in mice
# Assay type: in vivo
# test context: female, CD-1, mouse, vaginal secretion, po, oral gavage, BID repeat-dose 40/20 mg/kg (Days 1-4), read-out: AUC0-24 Vaginal Secretion
quantity measured: AUC(0-t)
Answer format reminder: number followed by unit.

**Query** # get_value(readout='AUC(0-t)', item= CC(C)[C@@H](C)[C@@]1(C)CC[C@]2(C)[C@H]3CC[C@@H]4[C@@]5(COC[C@]4(C)[C@@H](OC[C@](C)(N)C(C)(C)C)[C@H](n4ncnc4-c4ccncc4)C5)C3=CC[C@@]2(C)[C@@H]1C(=O)O )
**Result** 38800 ng·h/mL

* * *

# assay procedure: Plasma, vaginal secretion and vaginal tissue exposure after oral administration in mice
# Type: in vivo
# test context: female, CD-1, mouse, vaginal secretion, po, 40 mg/kg, oral gavage, QD 40 mg/kg (Day 1), read-out: AUC0-24 Vaginal Secretion
quantity measured: AUC(0-t) (ng·h/mL)
Give bare numbers, in ng·h/mL.

**Query** What AUC(0-t) value was documented for this compound, CC(C)[C@@H](C)[C@@]1(C)CC[C@]2(C)[C@H]3CC[C@@H]4[C@@]5(COC[C@]4(C)[C@@H](OC[C@](C)(N)C(C)(C)C)[C@H](n4ncnc4-c4ccncc4)C5)C3=CC[C@@]2(C)[C@@H]1C(=O)O ?
**Result** 4410
